Target: VcNagZ (Vibrio cholerae serotype O1, UniProt Q9KU37)
Test: Kinetic analysis of inhibitors against VcNagZ
Assay type: biochemical
Conditions: selectivity ratio
Experimental: Kinetic analysis of inhibitors: Assays against O-GlcNAcase, VcNagZ and StNagZ were performed in NaPi buffer (50 mM, NaCl (100 mM), pH 6.5) and for β-hexosaminidase B citrate buffer (50 mM, NaCl (100 mM), pH 4.25) using 4-methylumbelliferyl N-acetyl-β-D-glucosaminide as substrate. […] Readings were taken at excitation and emission wavelengths of 368 nm and 450 nm respectively. […]
outcome_measure: S.R. (Ki OGA/Ki VcNagZ)

- CCCCCC(=O)N[C@H]1CN[C@H](CO)[C@@H](O)[C@@H]1O [Compound 23]: >0.9
- CCCC(=O)N[C@H]1CN[C@H](CO)[C@@H](O)[C@@H]1O [Compound 21]: >53
- CCC(=O)N[C@H]1CN[C@H](CO)[C@@H](O)[C@@H]1O [Compound 20]: 31
- CCCCC(=O)N[C@H]1CN[C@H](CO)[C@@H](O)[C@@H]1O [Compound 22]: >9
- CC(C)CC(=O)N[C@H]1CN[C@H](CO)[C@@H](O)[C@@H]1O [Compound 25]: >1.8
- CC(=O)N[C@H]1CN[C@H](CO)[C@@H](O)[C@@H]1O [Compound 1]: 2.8

* * *

target: StNagZ (Salmonella typhimurium, UniProt Q8ZQ06)
We label by threshold. Values of Ki strictly beneath 50 µM are Met. Values of 50 µM and up are Not met.

* CC(C)C(=O)N[C@H]1CN[C@H](CO)[C@@H](O)[C@@H]1O | Met
* CCCCCC(=O)N[C@H]1CN[C@H](CO)[C@@H](O)[C@@H]1O | Not met
* CC(C)CC(=O)N[C@H]1CN[C@H](CO)[C@@H](O)[C@@H]1O | Not met
* CC(=O)N[C@H]1CN[C@H](CO)[C@@H](O)[C@@H]1O | Met
* CCCCC(=O)N[C@H]1CN[C@H](CO)[C@@H](O)[C@@H]1O | Met
* CCC(=O)N[C@H]1CN[C@H](CO)[C@@H](O)[C@@H]1O | Met

* * *

tested on: P. aeruginosa PA01; experiment: Minimal inhibitory concentration of β-lactams by serial dilution; conditions: Pseudomonas aeruginosa, PA01, 18 h, −21; standard serial dilution, 18 h at 37°C
Each item that follows carries a reported log10 of MIC.
outcome_measure: log10 of MIC (log10 of the value in µg/mL)

• C[C@@H](O)[C@H]1C(=O)N2C(C(=O)O)=C(SCCN=CN)C[C@H]12 = 0.90
• CC(C)(O/N=C(\C(=O)N[C@@H]1C(=O)N2C(C(=O)[O-])=C(C[n+]3ccccc3)CS[C@H]12)c1csc(N)n1)C(=O)O = 0.30
• CC1(C)S[C@@H]2[C@H](NC(=O)[C@H](N)c3ccccc3)C(=O)N2[C@H]1C(=O)O = 2.71
• C[C@H]1[C@H](NC(=O)/C(=N\OC(C)(C)C(=O)O)c2csc(N)n2)C(=O)N1S(=O)(=O)O = 0.00
• CO[C@@]1(NC(=O)Cc2cccs2)C(=O)N2C(C(=O)O)=C(COC(N)=O)CS[C@@H]21 = 3.31

* * *

Molecular target: UniProt:Q9KU37
Sequence (Q9KU37 1-330): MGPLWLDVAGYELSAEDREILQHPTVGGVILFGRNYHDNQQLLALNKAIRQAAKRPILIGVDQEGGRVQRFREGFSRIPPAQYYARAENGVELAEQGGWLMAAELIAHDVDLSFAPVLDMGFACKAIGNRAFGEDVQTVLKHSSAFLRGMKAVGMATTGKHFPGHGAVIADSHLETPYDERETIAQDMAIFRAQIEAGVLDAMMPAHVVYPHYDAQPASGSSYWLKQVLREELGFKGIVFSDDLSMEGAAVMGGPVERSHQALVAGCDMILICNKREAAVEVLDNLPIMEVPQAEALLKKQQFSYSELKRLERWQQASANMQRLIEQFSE
pKi: −log10 of the molar value.
Outcome label depends on pKi relative to 5: at/above gives yes, below gives no.

- CC(C)CC(=O)N[C@H]1CN[C@H](CO)[C@@H](O)[C@@H]1O [Compound 25]: no
- CCCCC(=O)N[C@H]1CN[C@H](CO)[C@@H](O)[C@@H]1O [Compound 22]: no
- CC(C)C(=O)N[C@H]1CN[C@H](CO)[C@@H](O)[C@@H]1O [Compound 24]: no
- CCCCCC(=O)N[C@H]1CN[C@H](CO)[C@@H](O)[C@@H]1O [Compound 23]: no
- CCC(=O)N[C@H]1CN[C@H](CO)[C@@H](O)[C@@H]1O [Compound 20]: yes
